Target: fusion protein PRV
Sequence (chain, as listed by the source): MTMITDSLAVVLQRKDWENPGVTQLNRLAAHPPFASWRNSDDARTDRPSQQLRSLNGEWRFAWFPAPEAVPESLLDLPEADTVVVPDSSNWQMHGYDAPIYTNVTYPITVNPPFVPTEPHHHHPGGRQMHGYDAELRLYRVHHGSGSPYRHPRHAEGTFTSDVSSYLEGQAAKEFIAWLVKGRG
Observed Property: relative cleavage efficiency

Request: Provide only the value of recorded relative cleavage efficiency for OmpT protease variant OmpT D97T (protein) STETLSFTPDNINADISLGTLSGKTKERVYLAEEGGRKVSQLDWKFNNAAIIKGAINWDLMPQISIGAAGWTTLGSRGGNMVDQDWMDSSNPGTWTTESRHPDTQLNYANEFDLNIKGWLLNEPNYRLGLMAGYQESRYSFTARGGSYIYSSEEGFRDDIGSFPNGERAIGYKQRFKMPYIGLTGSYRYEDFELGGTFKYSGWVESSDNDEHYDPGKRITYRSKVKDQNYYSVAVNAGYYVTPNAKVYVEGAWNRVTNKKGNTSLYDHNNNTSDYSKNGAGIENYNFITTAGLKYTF
Response: < 3%

The reported numbers originate from patent US20070077617.
